# measured.target: PI3Kγ (p110γ) Recombinant Human Protein (Homo sapiens (Human))
# Sequence (P48736 whole entry): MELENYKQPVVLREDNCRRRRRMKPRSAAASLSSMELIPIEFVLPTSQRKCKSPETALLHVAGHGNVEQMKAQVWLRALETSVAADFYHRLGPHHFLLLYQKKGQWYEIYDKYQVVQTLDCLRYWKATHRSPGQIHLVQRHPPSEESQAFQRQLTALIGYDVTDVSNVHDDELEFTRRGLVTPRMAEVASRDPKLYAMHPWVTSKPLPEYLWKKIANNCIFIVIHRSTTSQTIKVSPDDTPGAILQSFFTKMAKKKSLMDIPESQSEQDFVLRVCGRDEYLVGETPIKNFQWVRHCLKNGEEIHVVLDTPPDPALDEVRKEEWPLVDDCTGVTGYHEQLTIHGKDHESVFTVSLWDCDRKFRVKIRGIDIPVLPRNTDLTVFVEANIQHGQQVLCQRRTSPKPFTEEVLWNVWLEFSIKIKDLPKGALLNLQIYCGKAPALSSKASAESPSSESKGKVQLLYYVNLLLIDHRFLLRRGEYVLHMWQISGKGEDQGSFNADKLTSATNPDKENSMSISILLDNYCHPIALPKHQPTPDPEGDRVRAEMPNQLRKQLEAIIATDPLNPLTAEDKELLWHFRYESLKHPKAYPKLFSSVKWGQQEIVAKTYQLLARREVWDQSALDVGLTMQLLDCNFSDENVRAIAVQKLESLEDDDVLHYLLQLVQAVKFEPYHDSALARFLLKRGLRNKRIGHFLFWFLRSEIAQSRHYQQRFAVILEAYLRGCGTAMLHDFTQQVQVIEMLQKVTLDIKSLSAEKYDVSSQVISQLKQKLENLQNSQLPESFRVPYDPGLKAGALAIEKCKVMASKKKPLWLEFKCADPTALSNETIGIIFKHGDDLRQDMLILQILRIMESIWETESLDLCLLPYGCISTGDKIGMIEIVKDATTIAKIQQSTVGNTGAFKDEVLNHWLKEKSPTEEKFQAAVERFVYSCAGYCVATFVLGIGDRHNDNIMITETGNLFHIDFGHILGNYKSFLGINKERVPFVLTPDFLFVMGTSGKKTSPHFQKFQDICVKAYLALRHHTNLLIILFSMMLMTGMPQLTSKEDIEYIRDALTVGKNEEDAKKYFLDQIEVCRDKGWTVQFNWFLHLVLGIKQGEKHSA
# measurement.notes: PI3K-γ Scintillation Proximity Assay
# Assay type: biochemical
# reported.conditions: read-out: PI3Kγ IC50
Structures can show the parent of a compound that is named as a salt.
Measured IC50 accompanies every entry in the list below.

# annotated cases, reported IC50 shown
{"molecule": "Cc1ccc(S(=O)(=O)NC23CC(C)(C2)C3)cc1-c1cnc2c(N)ncnn12", "IC50": "< 100 nM"}
{"molecule": "Cc1ccc(S(=O)(=O)NC23CCC(O)(CC2)C3)cc1-c1cnc2c(N)ncnn12 [Example 442, trifluoroacetate salt]", "IC50": "< 100 nM"}
{"molecule": "Cc1ccc(S(=O)(=O)NC23CC(CN(C)C2)C3)cc1-c1cnc2c(N)ncnn12 [Example 523, trifluoroacetate]", "IC50": "< 100 nM"}
{"molecule": "Cc1ccc(S(=O)(=O)N2CC[C@@H](C#N)C2)cc1-c1cnc2c(N)ncnn12", "IC50": "< 100 nM"}
{"molecule": "Cc1ccc(S(=O)(=O)N[C@H]2CC[C@H](O)CC2)cc1-c1cnc2c(N)nc(-c3cnn(CC(F)(F)F)c3)cn12", "IC50": "< 100 nM"}

With those in mind, consider the next molecule.
Recorded result, Cc1ccc(S(=O)(=O)NC23CC(C(=O)N(C)C)(C2)C3)cc1-c1cnc2c(N)ncnn12 [Example 96, trifluoroacetate salt] , IC50: < 100 nM

---

# measured.target: PI3Kγ (p110γ) Recombinant Human Protein (Homo sapiens (Human))
# measurement.notes: PI3K-γ Scintillation Proximity Assay
# Type: biochemical
# reported.conditions: read-out: PI3Kγ IC50
# Protocol: [γ-^33P]ATP (10 mCi/mL) and Wheat Germ Agglutinin (WGA) YSi SPA Scintillation Beads was purchased from Perkin-Elmer (Waltham, Mass.). […] PI3Kγ (p110γ) Recombinant Human Protein was purchased from Life technology (Grand Island, N.Y.). ATP, MgCl2, DTT, EDTA, MOPS and CHAPS were purchased from Sigma-Aldrich (St. Louis, Mo.). The kinase reaction was conducted in polystyrene 384-well Greiner Bio-one white plate from Thermo Fisher Scientific in a final volume of 25 μL. […]
Counter-ions that a name gives are not always drawn.
readout.name: IC50

For orientation, consider the following solved cases.
{"molecule": "Cc1ccc(S(=O)(=O)N[C@H]2CC[C@@](C)(O)CC2)cc1-c1cnc2c(N)ncnn12", "IC50": "< 100 nM"}
{"molecule": "Cc1ccc(S(=O)(=O)NC23CC(CO)(C2)C3)cc1-c1cnc2c(N)nc(C(F)(F)F)cn12 [Example 274, trifluoroacetate salt]", "IC50": "< 100 nM"}

Record Cc1ncc(S(=O)(=O)NC23CCC(C#N)(C2)C3)cc1-c1cnc2c(N)ncnn12 [Example 256, trifluoroacetate salt] has PI3Kγ (p110γ) Recombinant Human Protein (Homo sapiens (Human)) IC50 equal to < 100 nM

---

The entries below are paired with their reported pIC50.
# measured.target: PI3Kδ (p110δ/p85α) Recombinant Human Protein (Homo sapiens (Human))
# measurement.notes: PI3Kδ Scintillation Proximity Assay
pIC50: −log10 of the molar value. Structures can show the parent of a compound that is named as a salt.

Below, each entry is followed by its recorded pIC50 result.
{"compound": "Cc1ccc(S(=O)(=O)N2C(C)COCC2C)cc1-c1cnc2c(N)ncnn12 (stereo not shown) [Example 155]", "readout.name": "pIC50", "assay.value": "6.30 to 7.00"}
{"compound": "Cc1ccc(S(=O)(=O)N[C@H]2C[C@H](CO)C2)cc1-c1cnc2c(N)nccn12 [Example 56]", "readout.name": "pIC50", "assay.value": "5.70 to 6.30"}
{"compound": "Cc1ccc(S(=O)(=O)NCC2CC(F)(F)C2)cc1-c1cnc2c(N)nc(C(=O)NC3CCC3)cn12 [Example 446, trifluoroacetate salt]", "readout.name": "pIC50", "assay.value": "6.30 to 7.00"}
{"compound": "Cc1ccc(S(=O)(=O)NCC2CCN(C(=O)C3CC3)CC2)cc1-c1cnc2c(N)nccn12 [Example 136]", "readout.name": "pIC50", "assay.value": "< 5.70"}
{"compound": "Cc1ccc(S(=O)(=O)NCCCO)cc1-c1cnc2c(N)nccn12 [Example 50]", "readout.name": "pIC50", "assay.value": "5.70 to 6.30"}
{"compound": "Cc1ccc(S(=O)(=O)NCC2(C#N)CC2)cc1-c1cnc2c(N)ncnn12 [Example 101, trifluoroacetate salt]", "readout.name": "pIC50", "assay.value": "5.70 to 6.30"}

Consider the record given below.
I looked up Cc1ccc(S(=O)(=O)N(C)[C@H]2CN(C)C[C@@H]2O)cc1-c1cnc2c(N)nc(C(F)(F)F)cn12 [Example 299] and its pIC50 for PI3Kδ (p110δ/p85α) Recombinant Human Protein (Homo sapiens (Human)) was 6.30 to 7.00

---

Readings of pIC50 for the listed molecules
# measured.target: PI3Kδ (p110δ/p85α) Recombinant Human Protein (Homo sapiens (Human), UniProt O00329)
# Sequence (O00329 whole entry): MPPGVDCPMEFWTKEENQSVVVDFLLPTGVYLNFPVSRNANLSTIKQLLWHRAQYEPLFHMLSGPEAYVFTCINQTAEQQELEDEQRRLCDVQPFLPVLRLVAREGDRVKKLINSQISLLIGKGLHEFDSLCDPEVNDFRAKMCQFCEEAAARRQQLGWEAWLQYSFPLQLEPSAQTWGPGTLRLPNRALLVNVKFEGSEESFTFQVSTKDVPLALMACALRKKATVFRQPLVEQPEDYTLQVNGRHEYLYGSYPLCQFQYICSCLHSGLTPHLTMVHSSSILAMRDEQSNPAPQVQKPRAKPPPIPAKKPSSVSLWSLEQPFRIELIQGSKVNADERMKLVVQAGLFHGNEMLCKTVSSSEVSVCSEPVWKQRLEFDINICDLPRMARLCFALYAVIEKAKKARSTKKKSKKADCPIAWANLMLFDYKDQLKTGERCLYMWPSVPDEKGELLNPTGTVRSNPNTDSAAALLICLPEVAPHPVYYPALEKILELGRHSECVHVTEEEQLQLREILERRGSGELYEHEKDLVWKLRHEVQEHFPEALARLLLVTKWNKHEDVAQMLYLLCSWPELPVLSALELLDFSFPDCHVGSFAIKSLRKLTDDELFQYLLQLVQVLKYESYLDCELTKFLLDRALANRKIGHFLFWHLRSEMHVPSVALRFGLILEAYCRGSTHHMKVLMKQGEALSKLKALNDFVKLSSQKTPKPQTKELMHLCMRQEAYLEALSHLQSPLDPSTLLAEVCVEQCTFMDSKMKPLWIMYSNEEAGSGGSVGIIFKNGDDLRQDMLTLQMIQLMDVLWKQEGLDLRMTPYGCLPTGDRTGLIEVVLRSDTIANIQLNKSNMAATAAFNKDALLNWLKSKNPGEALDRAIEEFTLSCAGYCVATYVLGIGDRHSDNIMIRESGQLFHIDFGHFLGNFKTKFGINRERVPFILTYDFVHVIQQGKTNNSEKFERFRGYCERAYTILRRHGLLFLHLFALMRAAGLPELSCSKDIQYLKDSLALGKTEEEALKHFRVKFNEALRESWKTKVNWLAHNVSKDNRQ
# Sequence (P27986 whole entry partner): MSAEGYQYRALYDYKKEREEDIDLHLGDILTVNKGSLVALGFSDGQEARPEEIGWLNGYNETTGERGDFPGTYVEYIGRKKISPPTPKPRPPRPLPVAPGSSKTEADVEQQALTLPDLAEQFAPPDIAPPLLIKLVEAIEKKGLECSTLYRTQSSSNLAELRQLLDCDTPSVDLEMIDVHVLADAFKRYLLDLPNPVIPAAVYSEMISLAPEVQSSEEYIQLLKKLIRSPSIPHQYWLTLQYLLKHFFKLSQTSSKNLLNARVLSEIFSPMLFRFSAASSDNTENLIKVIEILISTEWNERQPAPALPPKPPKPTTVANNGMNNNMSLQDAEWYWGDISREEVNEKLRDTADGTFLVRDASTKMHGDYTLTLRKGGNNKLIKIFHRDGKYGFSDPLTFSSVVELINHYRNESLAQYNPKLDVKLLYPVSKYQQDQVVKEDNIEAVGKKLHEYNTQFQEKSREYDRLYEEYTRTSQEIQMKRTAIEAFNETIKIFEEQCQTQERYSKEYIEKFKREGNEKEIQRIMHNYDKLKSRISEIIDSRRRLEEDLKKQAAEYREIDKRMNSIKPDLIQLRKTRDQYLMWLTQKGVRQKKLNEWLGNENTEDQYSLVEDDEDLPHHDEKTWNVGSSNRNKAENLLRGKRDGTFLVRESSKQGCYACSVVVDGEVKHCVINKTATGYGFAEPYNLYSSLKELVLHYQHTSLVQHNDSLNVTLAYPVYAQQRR
# measurement.notes: PI3Kδ Scintillation Proximity Assay
pIC50: −log10 of the molar value. Structures can show the parent of a compound that is named as a salt.

{"molecule": "Cc1nc(N)c2ncc(-c3cc(S(=O)(=O)NCC(C)(C)O)ccc3C)n2n1 [Example 273, trifluoroacetate salt]", "measured.target": "PI3Kδ (p110δ/p85α) Recombinant Human Protein (Homo sapiens (Human), UniProt O00329)", "pIC50": "5.70 to 6.30"}
{"molecule": "Cc1cc(F)c(S(=O)(=O)N[C@H]2CC[C@](C)(O)CC2)cc1-c1cnc2c(N)nc(C(F)(F)F)nn12 [Example 412, trifluoroacetate salt]", "measured.target": "PI3Kδ (p110δ/p85α) Recombinant Human Protein (Homo sapiens (Human), UniProt O00329)", "pIC50": "6.30 to 7.00"}
{"molecule": "Cc1ccc(S(=O)(=O)C[C@H]2CC[C@@H](O)CC2)cc1-c1cnc2c(N)ncnn12", "measured.target": "PI3Kδ (p110δ/p85α) Recombinant Human Protein (Homo sapiens (Human), UniProt O00329)", "pIC50": "5.70 to 6.30"}
{"molecule": "COC(=O)C12CC(NS(=O)(=O)c3ccc(C)c(-c4cnc5c(N)nc(C(F)(F)F)cn45)c3)(C1)C2 [Example 277, trifluoroacetate salt]", "measured.target": "PI3Kδ (p110δ/p85α) Recombinant Human Protein (Homo sapiens (Human), UniProt O00329)", "pIC50": "6.30 to 7.00"}
{"molecule": "Cc1ccc(S(=O)(=O)N2CC[C@H](O)C2)cc1-c1cnc2c(N)ncnn12", "measured.target": "PI3Kδ (p110δ/p85α) Recombinant Human Protein (Homo sapiens (Human), UniProt O00329)", "pIC50": "5.70 to 6.30"}
{"molecule": "Cc1ccc(S(=O)(=O)N(C)CC2(CO)CCC2)cc1-c1cnc2c(N)ncnn12", "measured.target": "PI3Kδ (p110δ/p85α) Recombinant Human Protein (Homo sapiens (Human), UniProt O00329)", "pIC50": "5.70 to 6.30"}
{"molecule": "C[C@]1(O)CC[C@H](NS(=O)(=O)c2cc(-c3cnc4c(N)nccn34)ccc2F)CC1", "measured.target": "PI3Kδ (p110δ/p85α) Recombinant Human Protein (Homo sapiens (Human), UniProt O00329)", "pIC50": "6.30 to 7.00"}
{"molecule": "COC(=O)N1CCCC(NC(=O)c2cn3c(-c4cc(S(C)(=O)=O)ccc4C)cnc3c(N)n2)C1 (stereo not drawn) [Example 461, trifluoroacetate salt]", "measured.target": "PI3Kδ (p110δ/p85α) Recombinant Human Protein (Homo sapiens (Human), UniProt O00329)", "pIC50": "5.70 to 6.30"}

pIC50 reading for Cc1ccc(S(C)(=O)=O)cc1-c1cnc2c(N)nc(-c3ccncc3F)cn12 [Example 476, trifluoroacetate] : 6.30 to 7.00

In plain terms, Cc1ccc(S(C)(=O)=O)cc1-c1cnc2c(N)nc(-c3ccc(C(C)O)cc3F)cn12 (stereo not drawn) has a documented pIC50 of 6.30 to 7.00

pIC50 recorded for this molecule, N#Cc1ccc(S(=O)(=O)NC23CCC(CO)(C2)C3)cc1-c1cnc2c(N)nc(C(F)(F)F)cn12 [Example 401, trifluoroacetate salt] , is < 5.70

Record Cc1ccc(S(=O)(=O)NC23CC(c4nccn4C)(C2)C3)cc1-c1cnc2c(N)nc(C(F)(F)F)cn12 [Example 294, trifluoroacetate salt] . Reported pIC50: 5.70 to 6.30

Looking up Cc1ccc(S(=O)(=O)NC23CC(Cn4cccn4)(C2)C3)cc1-c1cnc2c(N)nc(C(F)(F)F)nn12 [Example 332, trifluoroacetate salt] , I see its pIC50 listed as 6.30 to 7.00

Given item N#CC12CCC(NS(=O)(=O)c3cccc(-c4cnc5c(N)ncnn45)c3)(C1)C2 [Example 364, trifluoroacetate salt] , the value recorded as its pIC50 is 6.30 to 7.00
